Tested on: Salmonella typhimurium
Assay: Antimicrobial activity against Salmonella Typhimurium ATCC 14028 assessed as inhibition of planktonic growth at 20 uM at 25 degC after 24 hrs
Type: functional, organism-based
Conditions: Salmonella enterica subsp. enterica serovar Typhimurium
Activity calls are given as the source filed them. The rule behind the calls is not given here.
Outcomes: active, inactive

>>> df
                               sample_smiles  answer_label
 0   Nc1nc(-c2ccc(F)cc2)c(-c2ccc(F)cc2)[nH]1        active
 1  O=[N+]([O-])c1ccc(-c2cn3cccnc3[n+]2C2CCCCCCCCCCC2)cc1.[O-][Cl+3]([O-])([O-])[O-]      inactive
 2      CCCCCCCCCCCCCn1c(-c2ccc(Cl)cc2)cnc1N      inactive
 3         CCCCCCCCCCCCCCn1c(-c2ccccc2)cnc1N      inactive
 4     CCCCCCCn1c(-c2ccc(-c3ccccc3)cc2)cnc1N        active
 5           CCCCCCCCn1c(-c2ccc(OC)cc2)cnc1N        active
 6             CCCCCCCCCCn1c(-c2ccccc2)cnc1N        active
 7     Nc1ncc(-c2ccc(-c3ccccc3)cc2)n1C1CCCC1        active
 8              CCCCCn1c(-c2ccc(Cl)cc2)cnc1N        active
 9  CCCCCCCC[n+]1c(-c2ccc(F)cc2)cn2cccnc21.[O-][Cl+3]([O-])([O-])[O-]      inactive
10        CCCCCCCCCCCn1c(-c2ccc(Cl)cc2)cnc1N        active
11    Cc1ccc(-c2[nH]c(N)nc2-c2ccc(Cl)cc2)cc1        active
12             Nc1ncc(-c2ccccc2)n1C1CCCCCCC1      inactive
13    Nc1nc(-c2ccccc2)c(-c2ccccc2)n1C1CCCCC1      inactive
14               CCCCCCCCn1c(-c2ccccc2)cnc1N        active
15         Nc1nc(-c2ccc(-c3ccccc3)cc2)c[nH]1        active

* * *

We begin with a simple list: items and their reported IC50.
System: Salmonella typhimurium
Test: Antibiofilm activity in Salmonella Typhimurium ATCC 14028 assessed as inhibition of biofilm formation at 25 degC after 24 hrs
Format: functional, organism-based, Salmonella enterica subsp. enterica serovar Typhimurium
Settings: Salmonella enterica, ATCC 14028, 24 h
measurement.label: IC50 (µM)

>>> print(df.to_string())
                               sample_smiles  unit_name  limit_operator  recorded_measurement
 0                 Cn1c(-c2ccc(C#N)cc2)cnc1N         µM               >                   400
 1  Nc1ncc(-c2ccc(-c3ccccc3)cc2)n1C1CCCCCCCCCCC1         µM               >                   800
 2  CCCCCCCCCCn1c(-c2ccc(-c3ccccc3)cc2)cnc1N         µM               =                   5.7
 3                     CCn1c(-c2ccccc2)cnc1N         µM               =                   206
 4        Cn1c(-c2ccc([N+](=O)[O-])cc2)cnc1N         µM               =                   162
 5       CCn1c(-c2ccc([N+](=O)[O-])cc2)cnc1N         µM               =                   286
 6        CS(=O)(=O)c1ccc(-c2cnc(N)[nH]2)cc1         µM               >                   800
 7             CCCCCCn1c(-c2ccc(Cl)cc2)cnc1N         µM               =                   4.9
 8                COc1ccc(-c2cnc(N)[nH]2)cc1         µM               =                   120
 9           CCCCCCCCn1c(-c2cccc(Br)c2)cnc1N         µM               =                  11.2
10                  CCn1c(-c2ccc(F)cc2)cnc1N         µM               =                   290
11  CCCCCCCC[n+]1c(-c2ccc(-c3ccc(-c4ccccc4)cc3)cc2)cn2cccnc21.[O-][Cl+3]([O-])([O-])[O-]         µM               =                     5
12       CCCCCn1c(-c2ccc(-c3ccccc3)cc2)cnc1N         µM               =                   9.2
13   CCCCCCCCCn1c(-c2ccc(-c3ccccc3)cc2)cnc1N         µM               =                  16.4
14       CCCCCCCCCCCCn1c(-c2ccc(Cl)cc2)cnc1N         µM               =                   6.2
15   Nc1nc(-c2ccc(F)cc2)c(-c2ccc(F)cc2)[nH]1         µM               =                  18.2
